Test: Ketoprofen plasma levels achieved by on-knee patch delivery (Example 7)
Format: in vivo, human
Details: human, plasma, topical, 272 mg, Mean Ketoprofen Plasma Concentration, Two Patches; time point 10 hrs; N = 22
experimental_readout: concentration at 10 h

The compound listed as CC(C(=O)O)c1cccc(C(=O)c2ccccc2)c1 (stereo not shown) shows concentration at 10 h equal to 246 ng/mL

###

Experiment: Ketoprofen plasma levels achieved by on-knee patch delivery (Example 7)
Format: in vivo, human
Conditions: human, plasma, topical, 136 mg, Mean Ketoprofen Plasma Concentration, Single Patch; time point 32 hrs; N = 22
experimental_readout: concentration at 32 h (ng/mL)
# value in ng/mL; strip the unit string

The compound listed as CC(C(=O)O)c1cccc(C(=O)c2ccccc2)c1 (stereo not shown) [Ketoprofen] shows concentration at 32 h equal to 6.1

FYI, the data here is from patent US20090005745A1.
